- Test system: SDM103T2 cells
- assay_name: SDM103T2 proliferation and cell viability assay (CTG)
- Type: cell-based
- experimental_setup: 144 hours
Task for the reader: assign each of the following compounds its reported EC50.

Fill in EC50 for each of the 5 compounds listed.
1. CNS(=O)(=O)c1ccc(Nc2ccc(C(F)(F)F)cc2)c(-c2cn(C)cn2)c1
2. C=CC(=O)Nc1ccc(C)c(Oc2ccc(Cl)cc2)c1 [Compound 1-3, reference compound]
3. Cn1cnc(-c2cc([C@@]3(C)CCNC3=O)ccc2Nc2ccc(C(F)(F)F)cc2)c1 (single isomer, unassigned)
4. Cn1cnc(-c2cc(C3(C)NC(=O)NC3=O)ccc2Nc2ccc(C(F)(F)F)cc2)c1 (single isomer, unassigned)
5. Cn1nnc(-c2cc([C@]3(C)CCNC3=O)ccc2Nc2ccc(C(F)(F)F)cc2)n1 (stereo in doubt)

A:
1. < 200 nM
2. < 200 nM
3. < 200 nM
4. < 200 nM
5. < 200 nM

Q: Request the reported EC50 associated with FC(F)(F)c1ccc(CN2CCC(C3CC(Br)=NO3)CC2)cc1 (stereo not drawn) [Compound 1-2, reference compound]
A: > 1000 nM

----------
- Test system: BHY cells
- assay_name: BHY proliferation and cell viability assay (CTG)
- Format: cell-based
- experimental_setup: 144 hours
Task for the reader: assign each of the following molecules its reported EC50.

// worked examples, EC50 included
molecule | EC50
FC(F)(F)c1ccc(CN2CCC(C3CC(Br)=NO3)CC2)cc1 (stereo not drawn) [Compound 1-2, reference compound] | > 1000 nM
C=CC(=O)Nc1ccc(C)c(Oc2ccc(Cl)cc2)c1 [Compound 1-3, reference compound] | < 200 nM

Q: What value of EC50 on BHY cells does Cn1cnc(-c2cc([C@@]3(C)CCNC3=O)ccc2Nc2ccc(C(F)(F)F)cc2)c1 (single isomer, unassigned) have?
A: 200 to 1000 nM

----------
- System: NCI-H226 cells
- assay_name: Proliferation and cell viability assay, CellTiter-Glo 2.0 (CTG)
- Format: cell-based, human
- experimental_setup: responder cell line, 144 hrs
pEC50: −log10 of the molar value.
Task for the reader: assign each of the following molecules its reported pEC50.

// worked examples, pEC50 included
molecule | pEC50
Cn1cnc(-c2cc([C@@]3(C)C(=O)CNC3=O)ccc2Nc2ccc(C(F)(F)F)cc2)c1 (stereo in doubt) [Compound 18] | > 6.70
Cn1cnc(-c2cc(C3(C)NC(=O)NC3=O)ccc2Nc2ccc(C(F)(F)F)cc2)c1 (single isomer, unassigned) [Compound 15] | > 6.70

Q: Request the reported pEC50 associated with Cn1cnc(-c2cc([C@@]3(C)CCNC3=O)ccc2Nc2ccc(C(F)(F)F)cc2)c1 (single isomer, unassigned) [Compound 6]
A: > 6.70

----------
Task for the reader: assign each of the following compounds its reported pEC50.
- Test system: Mero82 cells
- assay_name: Mero82 proliferation and cell viability assay (CTG)
- Format: cell-based
- experimental_setup: 144 hours
pEC50: −log10 of the molar value.

Fill in pEC50 for each of the 3 compounds listed.
1. C=CC(=O)Nc1ccc(C)c(Oc2ccc(Cl)cc2)c1 [Compound 1-3, reference compound]
2. Cn1nnc(-c2cc([C@]3(C)CCNC3=O)ccc2Nc2ccc(C(F)(F)F)cc2)n1 (stereo in doubt)
3. Cn1cnc(-c2cc(C3(C)NC(=O)NC3=O)ccc2Nc2ccc(C(F)(F)F)cc2)c1 (single isomer, unassigned)

A:
["> 6.70", "> 6.70", "> 6.70"]

Fill in pEC50 for each of the 2 compounds listed.
1. FC(F)(F)c1ccc(CN2CCC(C3CC(Br)=NO3)CC2)cc1 (centres unmarked) [Compound 1-2, reference compound]
2. Cn1cnc(-c2cc([C@@]3(C)CCNC3=O)ccc2Nc2ccc(C(F)(F)F)cc2)c1 (single isomer, unassigned)

A:
1: < 6.00; 2: > 6.70
